Attribution: ChEMBL document CHEMBL1144182

System: Coxsackievirus B2
Test: Antiviral activity against CVB2 infected in Vero76 cells assessed as reduction in virus plaque formation after 4 days by MTT assay
Type: functional, organism-based
Settings: Enterovirus B, Vero 76, 96 h
Binary call on EC50 with cut-off 30 µM: strictly below means t, and equality or higher means f.

Does this molecule meet the criterion EC50 < 30 µM? `CN1C=C(/N=N/c2ccc(Cl)cc2)CCC1`
t

Does this molecule meet the criterion EC50 < 30 µM? `Clc1ccccc1/N=N\C1=C2CCCCN2CCC1`
f

Does this molecule meet the criterion EC50 < 30 µM? `C(=C\N1CCN(c2ccccc2)CC1)/N=N/c1ccccc1`
t

Does this molecule meet the criterion EC50 < 30 µM? `CN1CCC/C1=C\N=N\c1ccc(Cl)cc1`
t

Does this molecule meet the criterion EC50 < 30 µM? `Fc1ccc(N2CCN(/C=C/N=N/c3ccccc3)CC2)cc1`
t

Does this molecule meet the criterion EC50 < 30 µM? `CN1C=C(/N=N/c2cc(C(F)(F)F)cc(C(F)(F)F)c2)CCC1`
f

Does this molecule meet the criterion EC50 < 30 µM? `CN1C=C(/N=N/c2ccc(Br)c(C(F)(F)F)c2)CCC1`
f

Does this molecule meet the criterion EC50 < 30 µM? `CCOC(=O)c1ccc(/N=N/C=C/N2CCCC2)cc1`
f

Does this molecule meet the criterion EC50 < 30 µM? `Brc1ccc(/N=N\C2=C3CCCCN3CCC2)cc1`
t

Does this molecule meet the criterion EC50 < 30 µM? `O=[N+]([O-])c1cccc(/N=N\C2=C3CCCN3CCC2)c1`
f

Does this molecule meet the criterion EC50 < 30 µM? `FC(F)(F)c1cc(/N=N\C2=C3CCCCN3CCC2)ccc1Cl`
f

Does this molecule meet the criterion EC50 < 30 µM? `c1ccc2c(/N=N\C3=C4CCCN4CCC3)cccc2c1`
f

Does this molecule meet the criterion EC50 < 30 µM? `CN1CCC/C1=C\N=N\c1ccc(Cl)c(Cl)c1`
f

Does this molecule meet the criterion EC50 < 30 µM? `Clc1ccc(/N=N\C2=C3CCCCN3CCC2)cc1`
t

Does this molecule meet the criterion EC50 < 30 µM? `CCOC(=O)c1ccc(/N=N/C=C/N2CCCCC2)cc1`
f

Does this molecule meet the criterion EC50 < 30 µM? `CN1/C(=C\N=N\c2ccc(Cl)cc2)C(C)(C)c2ccccc21`
f

Does this molecule meet the criterion EC50 < 30 µM? `Cc1ccc(/N=N/C=C2\CCCN2Cc2ccccc2)cc1`
t

Does this molecule meet the criterion EC50 < 30 µM? `CN1CCC/C1=C\N=N\c1ccc(F)c(C(F)(F)F)c1`
f

Does this molecule meet the criterion EC50 < 30 µM? `Brc1cccc(/N=N\C2=C3CCCCN3CCC2)c1`
t

Does this molecule meet the criterion EC50 < 30 µM? `CN1/C(=C\N=N\c2ccccc2)C(C)(C)c2ccccc21.[O-][Cl+3]([O-])([O-])O`
f

Does this molecule meet the criterion EC50 < 30 µM? `c1ccc2c(N=NC3=C4CCCN4CCC3)nncc2c1`
f

Does this molecule meet the criterion EC50 < 30 µM? `Clc1ccc(/N=N/C=C/N2CCCC2)cc1`
t

Does this molecule meet the criterion EC50 < 30 µM? `CN1CCC/C1=C\N=N\c1cccc(C(F)(F)F)c1`
f

###

Test: Cytotoxicity against mock-infected african green monkey Vero76 cells assessed as reduction in cell viability after 96 hrs by MTT assay
Type: cell-based, Vero
Settings: chlorocebus sabaeus
ENDPOINT: CC50 at 96 h (µM)
Use µM as the unit, but write only the number.

Requested field: CC50 at 96 h. Item: `c1ccc2c(/N=N\C3=C4CCCN4CCC3)cccc2c1`
90

Requested field: CC50 at 96 h. Item: `Clc1ccc(/N=N\C2=C3CCCCN3CCC2)cc1`
80

Requested field: CC50 at 96 h. Item: `Clc1cccc(/N=N\C2=C3CCCCN3CCC2)c1`
60

Requested field: CC50 at 96 h. Item: `O=[N+]([O-])c1cccc(/N=N\C2=C3CCCCN3CCC2)c1`
90

###

Assay: Cytotoxicity against mock-infected african green monkey Vero76 cells assessed as reduction in cell viability after 96 hrs by MTT assay
Type: cell-based, Vero
Conditions: chlorocebus sabaeus
ENDPOINT: CC50 at 96 h

Requested field: CC50 at 96 h. Item: `c1ccc2c(/N=N\C3=C4CCCCN4CCC3)cccc2c1`
90 µM

Requested field: CC50 at 96 h. Item: `CN1CCC/C1=C\N=N\c1ccc(Br)c(C(F)(F)F)c1`
≥ 100 µM

Requested field: CC50 at 96 h. Item: `CCOC(=O)c1ccc(/N=N/C=C/N2CCCC2)cc1`
> 100 µM

Requested field: CC50 at 96 h. Item: `C[C@@]1(O)[C@H](O)[C@@H](CO)O[C@H]1n1cnc2c(=O)[nH]c(N)nc21`
> 100 µM

Requested field: CC50 at 96 h. Item: `CCOC(=O)c1ccc(/N=N/C=C/N2CCCCC2)cc1`
> 100 µM

Requested field: CC50 at 96 h. Item: `Clc1ccc(/N=N\C2=C3CCCN3CCC2)cc1`
75 µM

Requested field: CC50 at 96 h. Item: `Fc1ccc(N2CCN(/C=C/N=N/c3ccccc3)CC2)cc1`
35 µM

Requested field: CC50 at 96 h. Item: `Cc1ccc(/N=N/C=C2\CCCN2Cc2ccccc2)cc1`
50 µM

Requested field: CC50 at 96 h. Item: `FC(F)(F)c1cccc(/N=N\C2=C3CCCCN3CCC2)c1`
> 100 µM

Requested field: CC50 at 96 h. Item: `CN1C=C(/N=N/c2cccc(Br)c2)CCC1`
> 100 µM

Requested field: CC50 at 96 h. Item: `CN1C=C(/N=N/c2c(F)c(F)c(F)c(F)c2F)CCC1`
> 100 µM

###

Test: Cytotoxicity against mock-infected african green monkey Vero76 cells assessed as reduction in cell viability after 96 hrs by MTT assay
Assay type: cell-based, Vero
Conditions: chlorocebus sabaeus
ENDPOINT: CC50 at 96 h

Requested field: CC50 at 96 h. Item: `CCOC(=O)N1CCN(/C=C/N=N/c2ccccc2)CC1`
30 µM

Requested field: CC50 at 96 h. Item: `Clc1ccc(N2CCN(/C=C/N=N/c3ccccc3)CC2)cc1`
45 µM

Requested field: CC50 at 96 h. Item: `Cc1ccc(/N=N/C2=CN(C)CCC2)cc1`
71 µM

Requested field: CC50 at 96 h. Item: `CN1C=C(/N=N/c2cccc(Cl)c2)CCC1`
75 µM

Requested field: CC50 at 96 h. Item: `Clc1ccc(/N=N/C=C2\CCCN2Cc2ccccc2)cc1`
70 µM

Requested field: CC50 at 96 h. Item: `CN1C=C(/N=N/c2ccc(Cl)c([N+](=O)[O-])c2)CCC1`
> 100 µM

Requested field: CC50 at 96 h. Item: `CN1CCC/C1=C\N=N\c1cc(C(F)(F)F)cc(C(F)(F)F)c1`
93 µM

Requested field: CC50 at 96 h. Item: `C(/N=N/c1ccccc1)=C1/CCCN1Cc1ccccc1`
87 µM

Requested field: CC50 at 96 h. Item: `CN1C=C(/N=N/c2ccc(Cl)c(C(F)(F)F)c2)CCC1`
90 µM

Requested field: CC50 at 96 h. Item: `CN1C=C(/N=N/c2ccc(F)cc2)CCC1`
77 µM

Requested field: CC50 at 96 h. Item: `C(=C\N1CCCCC1)/N=N/c1ccccc1`
15 µM

Requested field: CC50 at 96 h. Item: `CN1CCC/C1=C\N=N\c1c(F)c(F)c(F)c(F)c1F`
> 100 µM

Requested field: CC50 at 96 h. Item: `Brc1cccc(/N=N\C2=C3CCCCN3CCC2)c1`
> 100 µM

Requested field: CC50 at 96 h. Item: `FC(F)(F)c1cc(/N=N\C2=C3CCCCN3CCC2)cc(C(F)(F)F)c1`
100 µM

Requested field: CC50 at 96 h. Item: `CN1CCC/C1=C\N=N\c1ccc(Br)cc1`
> 100 µM

Requested field: CC50 at 96 h. Item: `CN1/C(=C\N=N\c2ccccc2)C(C)(C)c2ccccc21.[O-][Cl+3]([O-])([O-])O`
73 µM

Requested field: CC50 at 96 h. Item: `CN1C=C(/N=N/c2ccccc2Cl)CCC1`
> 100 µM

Requested field: CC50 at 96 h. Item: `O=[N+]([O-])c1ccc(/N=N\C2=C3CCCCN3CCC2)cc1`
100 µM

Requested field: CC50 at 96 h. Item: `FC(F)(F)c1cc(/N=N\C2=C3CCCCN3CCC2)ccc1Br`
100 µM

Requested field: CC50 at 96 h. Item: O=c1cnn([C@@H]2O[C@H](CO)[C@@H](O)[C@H]2O)c(=O)[nH]1 [6-AZAURIDINE]
20 µM

Requested field: CC50 at 96 h. Item: `CN1CCC/C1=C\N=N\c1ccc(F)c(C(F)(F)F)c1`
> 100 µM

Requested field: CC50 at 96 h. Item: `Clc1cccc(N2CCN(/C=C/N=N/c3ccccc3)CC2)c1`
11 µM

Requested field: CC50 at 96 h. Item: `Clc1ccc2c(/N=N/C3=C4CCCCN4CCC3)ccnc2c1`
85 µM

Requested field: CC50 at 96 h. Item: `O=[N+]([O-])c1cccc(/N=N\C2=C3CCCN3CCC2)c1`
> 100 µM

Requested field: CC50 at 96 h. Item: `CN1C=C(/N=N/c2ccc(Cl)cc2)CCC1`
90 µM

Requested field: CC50 at 96 h. Item: `CC(=O)c1ccc(N2CCN(/C=C/N=N/c3ccccc3)CC2)cc1`
11 µM

Requested field: CC50 at 96 h. Item: `Fc1ccc(/N=N\C2=C3CCCCN3CCC2)cc1`
> 100 µM

Requested field: CC50 at 96 h. Item: `CN1C=C(/N=N/c2cccc([N+](=O)[O-])c2)CCC1`
> 100 µM

Requested field: CC50 at 96 h. Item: `C(=C\N1CCN(c2ccccn2)CC1)/N=N/c1ccccc1`
22 µM

Requested field: CC50 at 96 h. Item: `CN1/C(=C\N=N\c2ccc(Cl)cc2)C(C)(C)c2ccccc21`
> 100 µM

Requested field: CC50 at 96 h. Item: `Clc1ccc(/N=N\C2=C3CCCN3CCC2)cc1Cl`
> 100 µM

Requested field: CC50 at 96 h. Item: `CN1CCC/C1=C\N=N\c1ccc(Cl)c(Cl)c1`
100 µM

Requested field: CC50 at 96 h. Item: `Cc1ccc(/N=N/C=C2\CCCN2C)cc1`
> 100 µM

Requested field: CC50 at 96 h. Item: `CN1C=C(/N=N/c2ccc([N+](=O)[O-])cc2)CCC1`
> 100 µM

Requested field: CC50 at 96 h. Item: `C(=C\N1CCCC1)/N=N/c1ccccc1`
70 µM

Requested field: CC50 at 96 h. Item: `C(=C\N1CCSCC1)/N=N/c1ccccc1`
30 µM

Requested field: CC50 at 96 h. Item: `CN1CCC/C1=C\N=N\c1cccc(C(F)(F)F)c1`
> 100 µM

Requested field: CC50 at 96 h. Item: `C(=C\N1CCOCC1)/N=N/c1ccccc1`
30 µM

Requested field: CC50 at 96 h. Item: `COc1ccc(/N=N/C=C2\CCCN2C)cc1`
100 µM

Requested field: CC50 at 96 h. Item: `CN1C=C(/N=N/c2ccc(Br)c(C(F)(F)F)c2)CCC1`
80 µM

Requested field: CC50 at 96 h. Item: `FC(F)(F)c1cc(/N=N/C=C2\CCCN2Cc2ccccc2)ccc1Cl`
80 µM

Requested field: CC50 at 96 h. Item: `Clc1ccc(/N=N\C2=C3CCCCN3CCC2)cc1Cl`
> 100 µM

Requested field: CC50 at 96 h. Item: `FC(F)(F)c1cccc(N2CCN(/C=C/N=N/c3ccccc3)CC2)c1`
11 µM

Requested field: CC50 at 96 h. Item: `O=[N+]([O-])c1cc(/N=N\C2=C3CCCCN3CCC2)ccc1Cl`
100 µM

Requested field: CC50 at 96 h. Item: `Clc1ccc(/N=N/C=C/N2CCCC2)cc1`
22 µM

Requested field: CC50 at 96 h. Item: `C(=C\N1CCN(c2ncccn2)CC1)/N=N/c1ccccc1`
55 µM

Requested field: CC50 at 96 h. Item: `Fc1ccc(/N=N\C2=C3CCCCN3CCC2)cc1C(F)(F)F`
> 100 µM

Requested field: CC50 at 96 h. Item: `FC(F)(F)c1cc(/N=N\C2=C3CCCN3CCC2)ccc1Cl`
100 µM

Requested field: CC50 at 96 h. Item: `CN1C=C(/N=N/c2ccc(F)c(C(F)(F)F)c2)CCC1`
70 µM
